pIC50: recorded values
# target_under_test: HLA-A*6801 (human)
# measurement_notes: inhibition of 125I probe peptide binding to purified HLA
pIC50: −log10 of the molar value.
readout: pIC50

>>> df
                                     binder  value_measured
0  IVKGGVLIQR (synthetic analog peptide) [Her2/neu.148.V2]            7.54
1  HTVPWDQLFR (synthetic peptide) [Her2/neu.478]            8.40
2  IVWLGLRSLK (synthetic analog peptide) [Her2/neu.450.V2K10]            7.92
3  TVLWKDIFHR (synthetic analog peptide) [Her2/neu.166.V2R10]            7.38
4  TVCAGGCAR (synthetic peptide) [Her2/neu.218]            7.08
5  IVWKDIFHR (synthetic analog peptide) [Her2/neu.167.V2R9]            7.82
6  RTVCAGGCAR (synthetic peptide) [Her2/neu.217]            6.49
7  TILWKDIFHK (synthetic peptide) [Her2/neu.166]            6.70

Every entry's value here was drawn from patent US20040018971A1.
